Molecular target: recombinant human Bcl-2-G101V protein (Homo sapiens (Human), UniProt P10415, G101V)
Assay: Bcl-2-G101V TR-FRET Assay
Type: binding
Conditions: Bcl-2 G101V mutant, TR-FRET; read-out: Biochemical assay (IC50, nM) Bcl-2 G101V
Field: IC50. Provide a value for each of the molecules that follow.
Numeric only. Scale: nM

INPUT: Looking for the measured IC50 of CC(C)c1ccccc1[C@@H]1CN(Cc2ccnc3c2OCC(C)(C)O3)CCN1C1CC2(C1)CN(c1ccc(C(=O)NS(=O)(=O)c3ccc(NC[C@H]4CC[C@](C)(O)CC4)c([N+](=O)[O-])c3)c(Oc3cnc4[nH]ccc4c3)c1)C2 , can you help?
OUTPUT: 0.1

INPUT: Looking for the measured IC50 of [2H]C([2H])([2H])Oc1cc(CN2CCN(C3CC4(C3)CN(c3ccc(C(=O)NS(=O)(=O)c5ccc(NC[C@H]6CC[C@](C)(O)CC6)c([N+](=O)[O-])c5)c(Oc5cnc6[nH]ccc6c5)c3)C4)[C@H](c3ccccc3C(C)C)C2)cc2ccoc12 , can you help?
OUTPUT: 0.45

###

Biological target: Recombinant human Bcl-2 protein (Homo sapiens (Human), UniProt P10415)
Experiment: Bcl-2 TR-FRET Assay
Format: binding
Conditions: Bcl-2 wild type, TR-FRET; read-out: Biochemical assay (IC50, nM) Bcl-2 WT
Field: IC50. Provide a value for each of the molecules that follow.
Numeric only. Scale: nM

INPUT: Looking for the measured IC50 of COc1ccc(CN2CCN(C3CC4(C3)CN(c3ccc(C(=O)NS(=O)(=O)c5ccc(NC[C@H]6CC[C@](C)(O)CC6)c([N+](=O)[O-])c5)c(Oc5cnc6[nH]cc(F)c6c5)c3)C4)[C@H](c3ccccc3C(C)C)C2)cn1 , can you help?
OUTPUT: 0.057

INPUT: Looking for the measured IC50 of COc1ccc(CN2CCN(C3CC4(C3)CN(c3ccc(C(=O)NS(=O)(=O)c5ccc(NCC67CC8CC(C6)CC(OC)(C8)C7)c([N+](=O)[O-])c5)c(Oc5cnc6[nH]cc(F)c6c5)c3)C4)[C@H](c3ccccc3C(C)C)C2)cc1 , can you help?
OUTPUT: 0.57

INPUT: Looking for the measured IC50 of COc1cc(CN2CCN(C3CC4(C3)CN(c3ccc(C(=O)NS(=O)(=O)c5ccc(NC[C@H]6CC[C@](C)(O)CC6)c([N+](=O)[O-])c5)c(Oc5cnc6[nH]cc(F)c6c5)c3)C4)[C@H](c3ccccc3C(C)C)C2)cc2c1OCCC2(C)C , can you help?
OUTPUT: 0.11

INPUT: Looking for the measured IC50 of CC(C)c1ccccc1C1CN(Cc2cccc3c2OC(F)(F)O3)CCN1C1CC2(CCN(c3ccc(C(=O)NS(=O)(=O)c4ccc(NC[C@H]5CC[C@](C)(O)CC5)c([N+](=O)[O-])c4)c(Oc4cnc5[nH]ccc5c4)c3)CC2)C1 (stereo partly shown) , can you help?
OUTPUT: 1.8

###

Field: Ratio of Bcl-2 D103Y/Bcl-2 WT. Provide a value for each of the compounds that follow.
Biological target: recombinant human Bcl-2 D103Y protein (Homo sapiens (Human), UniProt P10415, D103Y)
Assay: Bcl-2-D103Y Biochemical Assay (TR-FRET)
Format: binding
Settings: ratio of IC50
Answer with the value's number alone.

INPUT: Looking for the measured Ratio of Bcl-2 D103Y/Bcl-2 WT of COc1ccc(CN2CCN(C3CC4(CCN(c5ccc(C(=O)NS(=O)(=O)c6ccc(NC[C@H]7CC[C@](C)(O)CC7)c([N+](=O)[O-])c6)c(Oc6cnc7[nH]ccc7c6)c5)CC4)C3)C(c3ccccc3C3CC3)C2)cc1 (some centres unmarked) , can you help?
OUTPUT: 5.1

INPUT: Looking for the measured Ratio of Bcl-2 D103Y/Bcl-2 WT of CC(C)c1ccccc1C1CN(Cc2ccc3sccc3c2)CCN1C1CC2(CCN(c3ccc(C(=O)NS(=O)(=O)c4ccc(NC[C@H]5CC[C@](C)(O)CC5)c([N+](=O)[O-])c4)c(Oc4cnc5[nH]ccc5c4)c3)CC2)C1 (some centres unmarked) , can you help?
OUTPUT: 2.9

Entry source: patent US20240376097A1
